Reference source: patent US20240209076A1

# TARGET OR TEST SYSTEM: human IL-6 (human, UniProt P05231 30-212)
# Sequence (P05231 30-212 limits assumed): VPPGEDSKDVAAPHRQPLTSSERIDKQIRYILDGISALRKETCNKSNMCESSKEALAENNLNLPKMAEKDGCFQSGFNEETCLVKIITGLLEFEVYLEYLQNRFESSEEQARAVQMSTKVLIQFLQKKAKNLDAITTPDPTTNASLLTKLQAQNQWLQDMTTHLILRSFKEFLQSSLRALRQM
# ASSAY EXPLANATION: SPR (Biacore), supernatant antibody on Protein A chip, IL-6 flowed, 37 C
Catalogue of binders with associated Kd
# value in nM; strip the unit string

Study these solved cases before continuing.
Entry under review: anti-IL-6 antibody, heavy chain T65V, G66D / light chain M32L, M50D, N52S, M88Q (antibody, human IgG1, V domains shown, Human IgG1) VH: EVQLVESGGGLVQPGGSLRLSCAASGFTFSPFAMSWVRQAPGKGLEWVAKISPGGSWTYYSDTVVDRFTFSLDTSKSTAYLQMNSLRAEDTAVYYCARQLWGYYALDIWGQGTLVTVSS VL: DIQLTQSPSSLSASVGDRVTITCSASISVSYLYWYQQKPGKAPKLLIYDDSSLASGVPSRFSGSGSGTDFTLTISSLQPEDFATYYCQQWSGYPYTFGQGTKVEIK . Reported Kd?
0.281

Given anti-IL-6 antibody, heavy chain S35P, G66D / light chain M32L, M50D, N52S, M88Q (antibody, human IgG1, V domains shown, Human IgG1) VH: EVQLVESGGGLVQPGGSLRLSCAASGFTFSPFAMPWVRQAPGKGLEWVAKISPGGSWTYYSDTVTDRFTFSLDTSKSTAYLQMNSLRAEDTAVYYCARQLWGYYALDIWGQGTLVTVSS VL: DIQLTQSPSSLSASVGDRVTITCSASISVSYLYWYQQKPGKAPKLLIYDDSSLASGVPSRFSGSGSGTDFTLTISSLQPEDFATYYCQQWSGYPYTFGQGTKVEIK , state its recorded Kd.
27.1

What Kd value was documented for this binder, anti-IL-6 antibody, heavy chain T65F, G66D / light chain M32L, M50D, N52S, M88Q (antibody, human IgG1, V domains shown, Human IgG1) VH: EVQLVESGGGLVQPGGSLRLSCAASGFTFSPFAMSWVRQAPGKGLEWVAKISPGGSWTYYSDTVFDRFTFSLDTSKSTAYLQMNSLRAEDTAVYYCARQLWGYYALDIWGQGTLVTVSS VL: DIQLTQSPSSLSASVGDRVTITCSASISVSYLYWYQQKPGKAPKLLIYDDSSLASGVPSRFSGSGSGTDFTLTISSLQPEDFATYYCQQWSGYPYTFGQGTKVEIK ?
0.291

Moving on to another binder below.
Given anti-IL-6 antibody, heavy chain S35L, G66D / light chain M32L, M50D, N52S, M88Q (antibody, human IgG1, V domains shown, Human IgG1) VH: EVQLVESGGGLVQPGGSLRLSCAASGFTFSPFAMLWVRQAPGKGLEWVAKISPGGSWTYYSDTVTDRFTFSLDTSKSTAYLQMNSLRAEDTAVYYCARQLWGYYALDIWGQGTLVTVSS VL: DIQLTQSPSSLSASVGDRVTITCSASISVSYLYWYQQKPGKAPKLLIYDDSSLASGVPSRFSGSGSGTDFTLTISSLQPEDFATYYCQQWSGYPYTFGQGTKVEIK , state its recorded Kd.
2.59
